Value source: patent US5196449A

assay.protocol: Acute toxicity in mice, stomach probe
Assay type: in vivo
condition.parameters: mouse, in vivo, po
measured.attribute: LD50

{"molecule": "Oc1cc(O)c2cc(O)c(-c3cc(O)c(O)c(O)c3)[o+]c2c1 [Compound II, delphinidin]", "LD50": "> 6000 mg/kg"}

Which LD50 reading was recorded for the molecule Oc1ccc(-c2[o+]c3cc(O)cc(O)c3cc2O)cc1 [Compound I, pelargonidin] ?
> 6000 mg/kg
